system_name: BCRP (Homo sapiens)
Sequence (Q9UNQ0 whole entry): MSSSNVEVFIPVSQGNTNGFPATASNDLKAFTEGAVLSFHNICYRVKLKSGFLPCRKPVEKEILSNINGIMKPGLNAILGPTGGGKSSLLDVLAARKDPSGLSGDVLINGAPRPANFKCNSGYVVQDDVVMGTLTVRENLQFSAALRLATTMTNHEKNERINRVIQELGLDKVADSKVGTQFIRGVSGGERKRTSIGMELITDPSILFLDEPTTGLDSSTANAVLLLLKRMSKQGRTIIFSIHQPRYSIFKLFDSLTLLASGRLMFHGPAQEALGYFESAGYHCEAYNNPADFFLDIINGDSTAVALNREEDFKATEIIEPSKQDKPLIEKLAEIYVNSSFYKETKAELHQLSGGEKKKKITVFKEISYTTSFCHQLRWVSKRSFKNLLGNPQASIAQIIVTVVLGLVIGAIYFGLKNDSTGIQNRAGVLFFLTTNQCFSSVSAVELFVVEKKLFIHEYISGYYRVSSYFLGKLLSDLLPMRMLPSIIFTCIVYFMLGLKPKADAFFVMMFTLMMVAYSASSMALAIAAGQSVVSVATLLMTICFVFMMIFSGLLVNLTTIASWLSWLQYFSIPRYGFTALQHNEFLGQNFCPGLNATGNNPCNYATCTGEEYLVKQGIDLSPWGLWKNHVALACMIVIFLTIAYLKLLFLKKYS
test_summary: In vitro transporter inhibition, BCRP
measured_attribute: IC50

Q: Report IC50 for N#Cc1ccc(O[C@H]2CC[C@H](NC(=O)c3ccc(N4CCC(CN5CCN(c6cc7c(cc6F)C(=O)N(C6CCC(=O)NC6=O)C7=O)CC5)CC4)nn3)CC2)cc1Cl (stereo partly shown)
Result: > 10 µM

* * *

test_summary: Phase I clinical trial pharmacokinetics
condition_summary: male, human, in vivo, po, 35 mg, Mean Day 1 Cmax, 35 mg oral, once daily
measured_attribute: Cmax (ng/mL)
Please reply with the bare figure in ng/mL and do not write the unit itself.

Q: Report Cmax for N#Cc1ccc(O[C@H]2CC[C@H](NC(=O)c3ccc(N4CCC(CN5CCN(c6cc7c(cc6F)C(=O)N(C6CCC(=O)NC6=O)C7=O)CC5)CC4)nn3)CC2)cc1Cl (stereo partly shown)
Result: 11.1

* * *

system_name: OATP1B3 (Homo sapiens)
Sequence (Q9NPD5 whole entry): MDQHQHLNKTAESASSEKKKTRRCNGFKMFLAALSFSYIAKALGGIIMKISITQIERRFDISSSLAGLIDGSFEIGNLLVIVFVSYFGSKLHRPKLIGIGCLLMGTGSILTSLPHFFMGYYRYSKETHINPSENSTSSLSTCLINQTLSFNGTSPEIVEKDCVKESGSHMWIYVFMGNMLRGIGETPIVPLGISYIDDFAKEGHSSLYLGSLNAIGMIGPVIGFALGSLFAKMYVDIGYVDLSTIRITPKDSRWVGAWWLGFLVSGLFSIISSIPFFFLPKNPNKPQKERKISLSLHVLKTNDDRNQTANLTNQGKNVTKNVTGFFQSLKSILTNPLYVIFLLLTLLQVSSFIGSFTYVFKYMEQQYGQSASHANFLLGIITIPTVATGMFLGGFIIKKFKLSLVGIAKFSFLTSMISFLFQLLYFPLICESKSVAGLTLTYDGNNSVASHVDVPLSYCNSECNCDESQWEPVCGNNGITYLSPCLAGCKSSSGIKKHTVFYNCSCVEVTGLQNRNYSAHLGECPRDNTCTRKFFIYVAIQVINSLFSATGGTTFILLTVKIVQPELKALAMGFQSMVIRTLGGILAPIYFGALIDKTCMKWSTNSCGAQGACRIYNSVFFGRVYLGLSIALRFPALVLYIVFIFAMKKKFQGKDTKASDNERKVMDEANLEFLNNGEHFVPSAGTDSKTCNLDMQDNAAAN
test_summary: In vitro transporter inhibition, OATP1B3
pIC50: −log10 of the molar value.
measured_attribute: pIC50

Q: Report pIC50 for N#Cc1ccc(O[C@H]2CC[C@H](NC(=O)c3ccc(N4CCC(CN5CCN(c6cc7c(cc6F)C(=O)N(C6CCC(=O)NC6=O)C7=O)CC5)CC4)nn3)CC2)cc1Cl (stereo partly shown)
Result: < 5.00

* * *

test_summary: Phase I clinical trial pharmacokinetics
condition_summary: male, human, in vivo, po, 70 mg, Mean Day 1 AUC0-24, 70 mg oral, once daily
measured_attribute: AUC(0-t) (µg·h/mL)
Please reply with the bare figure in µg·h/mL and do not write the unit itself.

Q: Report AUC(0-t) for N#Cc1ccc(O[C@H]2CC[C@H](NC(=O)c3ccc(N4CCC(CN5CCN(c6cc7c(cc6F)C(=O)N(C6CCC(=O)NC6=O)C7=O)CC5)CC4)nn3)CC2)cc1Cl (stereo partly shown) [Compound (I-g)]
Result: 0.3

* * *

test_summary: Phase I clinical trial pharmacokinetics
condition_summary: male, human, in vivo, po, 70 mg, Mean Day 1 Cmax, 70 mg oral, once daily
measured_attribute: Cmax
Report field: quantity (unit follows the number).

Q: Report Cmax for N#Cc1ccc(O[C@H]2CC[C@H](NC(=O)c3ccc(N4CCC(CN5CCN(c6cc7c(cc6F)C(=O)N(C6CCC(=O)NC6=O)C7=O)CC5)CC4)nn3)CC2)cc1Cl (stereo partly shown)
Result: 19.6 ng/mL

* * *

test_summary: in vivo
condition_summary: dog, po
measured_attribute: MTD at 28 days

Q: Report MTD at 28 days for N#Cc1ccc(O[C@H]2CC[C@H](NC(=O)c3ccc(N4CCC(CN5CCN(c6cc7c(cc6F)C(=O)N(C6CCC(=O)NC6=O)C7=O)CC5)CC4)nn3)CC2)cc1Cl (stereo partly shown)
Result: < 30 mg/kg

* * *

test_summary: Phase I clinical trial pharmacokinetics
condition_summary: male, human, in vivo, po, 140 mg, Mean Day 1 Cmax, 140 mg oral, once daily
measured_attribute: Cmax (ng/mL)
Please reply with the bare figure in ng/mL and do not write the unit itself.

Q: Report Cmax for N#Cc1ccc(O[C@H]2CC[C@H](NC(=O)c3ccc(N4CCC(CN5CCN(c6cc7c(cc6F)C(=O)N(C6CCC(=O)NC6=O)C7=O)CC5)CC4)nn3)CC2)cc1Cl (stereo partly shown) [Compound (I-g)]
Result: 54

* * *

test_summary: Phase I clinical trial pharmacokinetics
condition_summary: male, human, in vivo, po, 70 mg, Mean Day 15 Cmax, 70 mg oral, once daily
measured_attribute: Cmax
Report field: quantity (unit follows the number).

Q: Report Cmax for N#Cc1ccc(O[C@H]2CC[C@H](NC(=O)c3ccc(N4CCC(CN5CCN(c6cc7c(cc6F)C(=O)N(C6CCC(=O)NC6=O)C7=O)CC5)CC4)nn3)CC2)cc1Cl (stereo partly shown) [Compound (I-g)]
Result: 141 ng/mL

The reported numbers originate from patent US20210353621A1.
